I'd appreciate it if you could supply Population Membrane Permeable-Phenotype (%) values for the items below.
- System: Fibroblast
- procedure_summary: Multiplex assay against human fibroblast
- Assay type: toxicity, cell-based
- applied_conditions: 12 h, 1 µM, compound concentration 1 uM, number of replicates 2

Consider the reported Population Membrane Permeable-Phenotype (%) for these molecules:
CN(C)C/C=C/C(=O)Nc1ccc(C(=O)Nc2cccc(Nc3ncc(Cl)c(-c4c[nH]c5ccccc45)n3)c2)cc1: 6%
C=CC(=O)Nc1ccc2[nH]c(=O)n(C3CCN(Cc4ccc(-c5ccc6c(c5)NC(=O)CO6)cc4)CC3)c2c1: 4%
CC(C)N(CCCCOCC(=O)NS(C)(=O)=O)c1cnc(-c2ccccc2)c(-c2ccccc2)n1: 4%
Cn1cc(-n2cnc3c(NCc4nc5cc(Cl)c(Cl)cc5[nH]4)nc(N4CCOCC4)nc32)cn1: 7%
CC1(C)C(=O)N([C@H]2CCc3c(O)cccc32)c2nc(Nc3cccc(CN4CCCC4)c3)ncc21: 5%

Hey, can you go through the list below and give me Population Membrane Permeable-Phenotype (%) for every item?
1. COc1cc(OC)cc(C(=O)NNC(=O)Nc2cccc3ccccc23)c1
2. COc1ccc(-c2cc3c(C)nc(N)nc3n([C@H]3CC[C@H](OCCO)CC3)c2=O)cn1
3. Cc1c(C(=O)Nc2ccc(N3C[C@@H](C)O[C@@H](C)C3)nc2)cccc1-c1ccc(OC(F)(F)F)cc1

["3%", "3%", "5%"]

* * *

- System: Fibroblast
- procedure_summary: Multiplex assay against human fibroblast
- Assay type: toxicity, cell-based
- applied_conditions: 24 h, 10 µM, compound concentration 10 uM, number of replicates 2
So I've got a bunch of compounds here, and I need their Population Normal (%) values.
Could you write the number and then its unit?

Please look at the items below and tell me Population Normal (%) for each one, in order.
1. NCC1CCC(CNc2nc(NCc3ccccc3OC(F)(F)F)ncc2[N+](=O)[O-])CC1 (configuration not stated)
2. COc1ncc(-c2cc(-c3ncc(CN4C[C@@H](C)O[C@@H](C)C4)o3)c3cn[nH]c3c2)cc1NS(C)(=O)=O
3. CN(C)CCN(Cc1ccc(-c2ccc(CNCCc3ccccc3)cc2)cc1)C(=O)CCC1CCCC1.Cl.Cl
4. CCc1cnn2c(NCc3ccc[n+]([O-])c3)cc(N3CCCCC3CCO)nc12 (configuration not stated)

["100%", "100%", "98%", "100%"]

Provide reported Population Normal (%) for each item, in the same order as listed.
1. CN1CCCN(C(=O)c2cccc(-c3ccc(/C=C4/C(=O)Nc5ccc(Cl)cc54)o3)c2)CC1
2. Cc1cc(NC(=O)c2cccc(NC(=O)/C=C/CN(C)C)c2)ccc1Nc1nccc(-c2cccnc2)n1
3. Cn1cc(-n2cnc3c(NCc4nc5cc(Cl)c(Cl)cc5[nH]4)nc(N4CCOCC4)nc32)cn1

1: 100%; 2: 99%; 3: 99%

* * *

- System: Fibroblast
- procedure_summary: Multiplex assay against human fibroblast
- Type: toxicity, cell-based
- applied_conditions: 24 h, 1 µM, compound concentration 1 uM, number of replicates 2
reported_metric: Population Normal (%)
Give bare numbers, in %.

Check out these entries, answers already filled in.
COc1cc(Nc2cnc(C#N)c(O[C@H](C)CN(C)C)n2)ncc1-c1cnn(C)c1: 100
CN1CCN(c2ccc(-n3cc(-c4ccncc4OCC4CCNCC4)cn3)cc2)CC1: 100
Cc1ccc2c(c1CCC(=O)O)CC[C@@H](NS(=O)(=O)c1ccc(Cl)cc1)C2 [TERUTROBAN]: 100
COc1ccc(-c2cc3c(C)nc(N)nc3n([C@H]3CC[C@H](OCCO)CC3)c2=O)cn1 [PF-04691502]: 99
Cc1c(C(=O)Nc2ccc(N3C[C@@H](C)O[C@@H](C)C3)nc2)cccc1-c1ccc(OC(F)(F)F)cc1 [SONIDEGIB]: 100

# map each molecule to its Population Normal (%)
1. CN(C)CCN(Cc1ccc(-c2ccc(CNCCc3ccccc3)cc2)cc1)C(=O)CCC1CCCC1.Cl.Cl
2. C=CC(=O)Nc1ccc2[nH]c(=O)n(C3CCN(Cc4ccc(-c5ccc6c(c5)NC(=O)CO6)cc4)CC3)c2c1 [RL2578]

1: 99; 2: 100

Each molecule below has a reported value. Please supply its Population Normal (%).
1. CS(=O)(=O)c1ccc(C(=O)Nc2cccc(COc3ccc(Br)cc3CN[C@H]3CCC[C@@H]3O)c2)c(Cl)c1.O=CO
2. CC1(C)C(=O)N([C@H]2CCc3c(O)cccc32)c2nc(Nc3cccc(CN4CCCC4)c3)ncc21
3. COCCN1CCN(CCn2ccc(Nc3ncc4c(n3)-c3c(nn(C)c3-c3ccccc3)C[C@H]4C)n2)CC1

1: 100; 2: 99; 3: 99

Dear colleague, please send me the reported Population Normal (%) for "CN1CCCN(C(=O)c2cccc(-c3ccc(/C=C4/C(=O)Nc5ccc(Cl)cc54)o3)c2)CC1" when you can. 100

* * *

- Test system: HEK-293T
- procedure_summary: Multiplex assay against HEK293T
- Format: toxicity, cell-based
- applied_conditions: human, 24 h, 1 µM, compound concentration 1 uM, number of replicates 2
Task for the reader: assign each of the following compounds its reported Population Normal (%).
Give bare numbers, in %.

For each of the compounds below, state Population Normal (%).
1. CN[C@@H]1CC[C@@H](c2ccc(Cl)c(Cl)c2)c2ccccc21.Cl
2. Cc1ccc(C(=O)Nc2cc(N3CCN(C)CC3)cc(C(F)(F)F)c2)cc1-n1cc(-c2cnn(C)c2C)nn1.Cl
3. CN1CCCN(C(=O)c2cccc(-c3ccc(/C=C4/C(=O)Nc5ccc(Cl)cc54)o3)c2)CC1

1: 91; 2: 89; 3: 90

Parameter requested: Population Normal (%). Apply to each item below.
1. CN1CCc2cc(Cl)c(O)cc2[C@@H](c2ccccc2)C1.Cl
2. CS(=O)(=O)c1ccc(C(=O)Nc2cccc(COc3ccc(Br)cc3CN[C@H]3CCC[C@@H]3O)c2)c(Cl)c1.O=CO
3. C=CC(=O)Nc1ccc2[nH]c(=O)n(C3CCN(Cc4ccc(-c5ccc6c(c5)NC(=O)CO6)cc4)CC3)c2c1
4. C[C@H](N)Cn1ccc2cc(F)c(Cl)cc21.O=C(O)/C=C/C(=O)O

92
90
95
92

* * *

- System: HEK-293T
- procedure_summary: Multiplex assay against HEK293T
- Type: toxicity, cell-based
- applied_conditions: human, 48 h, 1 µM, compound concentration 1 uM, number of replicates 2
For each entry below, report its Population Normal (%) value.
Answers are plain numbers, in %.

Here's what some known entries look like.
CN(C)CCN(Cc1ccc(-c2ccc(CNCCc3ccccc3)cc2)cc1)C(=O)CCC1CCCC1.Cl.Cl: 91
O=C(NCc1ccc(F)cc1)N1CCN2C(=O)OC(c3ccccc3)(c3ccccc3)C2C1 (stereo unspecified): 90
COc1ncc(-c2cc(-c3ncc(CN4C[C@@H](C)O[C@@H](C)C4)o3)c3cn[nH]c3c2)cc1NS(C)(=O)=O: 88
COc1cc(Br)c(S(=O)(=O)Nc2ccc(C(F)(F)F)c(O[C@@H]3CCN(C)C3)c2)cc1OC: 90
C[C@H](N)Cn1ccc2cc(F)c(Cl)cc21.O=C(O)/C=C/C(=O)O: 90

# assay system HEK-293T: give Population Normal (%) of "CS(=O)(=O)c1ccc(C(=O)Nc2cccc(COc3ccc(Br)cc3CN3CC[C@H](O)C3)c2)cc1.O=CO" 90

* * *

- System: HEK-293T
- procedure_summary: Multiplex assay against HEK293T
- Type: toxicity, cell-based
- applied_conditions: human, 12 h, 10 µM, compound concentration 10 uM, number of replicates 2
For each record, write down the corresponding Population Hoechst High Intensity Objects (%).
The answer should read as a number with its unit following.

Past entries and their recorded results:
Cc1ccc2c(c1CCC(=O)O)CC[C@@H](NS(=O)(=O)c1ccc(Cl)cc1)C2: 8%
CN(C)CC#Cc1ccc2[nH]c3c(c2c1)-c1nc(N)ncc1CCC3: 12%

Now consider the entry below.
Provide measured Population Hoechst High Intensity Objects (%) value, entry: CCc1cnn2c(NCc3ccc[n+]([O-])c3)cc(N3CCCCC3CCO)nc12 (stereo not drawn) 13%

* * *

Kindly state Population Mitochondria Different-Phenotype (%) for each of the entries shown.
- Tested on: Fibroblast
- procedure_summary: Multiplex assay against human fibroblast
- Format: toxicity, cell-based
- applied_conditions: 12 h, 10 µM, compound concentration 10 uM, number of replicates 2
Give bare numbers, in %.

COCCN1CCN(CCn2ccc(Nc3ncc4c(n3)-c3c(nn(C)c3-c3ccccc3)C[C@H]4C)n2)CC1: 2
CC(C)N(CCCCOCC(=O)NS(C)(=O)=O)c1cnc(-c2ccccc2)c(-c2ccccc2)n1 [SELEXIPAG]: 1

Hey, quick one: what's Population Mitochondria Different-Phenotype (%) for each of these?
1. COc1cc(Nc2cnc(C#N)c(O[C@H](C)CN(C)C)n2)ncc1-c1cnn(C)c1
2. O=C(NCc1ccc(F)cc1)N1CCN2C(=O)OC(c3ccccc3)(c3ccccc3)C2C1 (stereo not drawn)
3. N=C(N)NCCC[C@H](NC(=O)COCC(c1ccccc1)c1ccccc1)C(=O)O.O=C(O)C(F)(F)F
4. Cc1onc(-c2ccccc2Cl)c1C(=O)N(C)c1ccc(Cl)cc1
5. CNC(=O)c1c(F)cccc1Nc1nc(Nc2cc3c(cc2OC)CCN3C(=O)CN(C)C)nc2[nH]ccc12
6. COc1cc(C(=O)NC2CCN(C)CC2)ccc1Nc1ncc(C(F)(F)F)c(NCc2ccc(C)cc2N(C)S(C)(=O)=O)n1.O=CO.O=CO

0
3
0
2
3
15
